Experiment: Drug metabolism in human liver microsomes assessed as disappearance of parent compound at 5 uM after 30 mins in presence of NADPH by UPLC-MS/MS analysis
Format: ADME, microsome
Settings: read-out: Drug metabolism
Decision: metabolised at 0.5 h, 5 µM compared against 70%; not below it gives rule met, below it gives rule not met.

- sample-smiles: "Cc1ccn2nc([C@H](C)Nc3ncnc4[nH]cc(-c5cnn(C)c5)c34)n(-c3ccccc3)c(=O)c12"
  cat: "rule met"
- sample-smiles: "Cc1ccn2nc([C@H](C)Nc3ncnc4[nH]cc(Sc5cccc(O)c5)c34)n(-c3ccccc3)c(=O)c12"
  cat: "rule met"

Task item: Is metabolised at 0.5 h, 5 µM at least 70%? Consider Cc1ccn2nc([C@H](C)Nc3ncnc(N)c3-c3cccc(NS(C)(=O)=O)c3)n(-c3ccccc3)c(=O)c12
Reply: rule met

Task item: Is metabolised at 0.5 h, 5 µM at least 70%? Consider Cc1ccn2nc([C@H](C)Nc3ncnc(N)c3-c3ccc4cc[nH]c4c3)n(-c3ccccc3)c(=O)c12
Reply: rule not met

###

Exercise: for every item that follows, state its recorded AUC.
Assay: AUC in Wistar rat at 1 mg/kg, iv
Type: ADME, organism-based
Details: in vivo
Numbers only, in ng·h/mL.

- sample-smiles: "Cc1ccn2nc([C@H](C)Nc3ncnc4[nH]cc(-c5cc(NS(C)(=O)=O)cc6[nH]ccc56)c34)n(-c3ccccc3)c(=O)c12"
  observed-result: 171

Sure, the documented AUC for Cc1ccn2nc([C@H](C)Nc3ncnc(N)c3-c3ccc(O)c(F)c3)n(-c3ccccc3)c(=O)c12 is 149

###

Assay: Drug metabolism in rat liver microsomes assessed as disappearance of parent compound at 5 uM preincubated for 3 mins followed UDPG addition and measured after 120 mins by UPLC-MS/MS analysis
Type: ADME, microsome
Settings: read-out: Drug metabolism
Decision: metabolised at 2 h, 5 µM compared against 70%; not below it gives Yes, below it gives No.

Task item: Is metabolised at 2 h, 5 µM at least 70%? Consider Cc1ccn2nc([C@H](C)Nc3ncnc4[nH]cc(-c5cc(O)cc(NS(C)(=O)=O)c5)c34)n(-c3ccccc3)c(=O)c12
Reply: No

Task item: Is metabolised at 2 h, 5 µM at least 70%? Consider Cc1ccn2nc([C@H](C)Nc3ncnc(N)c3-c3ccc(O)cc3)n(-c3ccccc3)c(=O)c12
Reply: No

Task item: Is metabolised at 2 h, 5 µM at least 70%? Consider Cc1ccn2nc([C@H](C)Nc3ncnc4[nH]cc(Sc5cccc(O)c5)c34)n(-c3ccccc3)c(=O)c12
Reply: Yes

Task item: Is metabolised at 2 h, 5 µM at least 70%? Consider Cc1ccn2nc([C@H](C)Nc3ncnc(N)c3-c3ccc(O)c(F)c3)n(-c3ccccc3)c(=O)c12
Reply: Yes

Task item: Is metabolised at 2 h, 5 µM at least 70%? Consider Cc1ccn2nc([C@H](C)Nc3ncnc(N)c3-c3cc(O)cc(Cl)c3)n(-c3ccccc3)c(=O)c12
Reply: Yes

###

Assay: Cmax in Wistar rat plasma at 0.015 mg/kg, it administered as solution
Assay type: ADME, organism-based
Set-up: dose 0.015 mg/kg
Settings: inhaled or intranasal
property-label: Cmax (ng/mL)
Give bare numbers, in ng/mL.

Kindly give each listed record's Cmax.
1. Cc1ccn2nc([C@H](C)Nc3ncnc4[nH]cc(-c5cc(NS(C)(=O)=O)cc6[nH]ccc56)c34)n(-c3ccccc3)c(=O)c12
2. Cc1ccn2nc([C@H](C)Nc3ncnc(N)c3-c3ccc(O)c(F)c3)n(-c3ccccc3)c(=O)c12

Reply:
1. 1.4
2. 36.3
